- tested_target: hA3AR (Homo sapiens)
- Construct: expressed in transfected cells; host or cells: CHO
- Sequence (P0DMS8 whole entry): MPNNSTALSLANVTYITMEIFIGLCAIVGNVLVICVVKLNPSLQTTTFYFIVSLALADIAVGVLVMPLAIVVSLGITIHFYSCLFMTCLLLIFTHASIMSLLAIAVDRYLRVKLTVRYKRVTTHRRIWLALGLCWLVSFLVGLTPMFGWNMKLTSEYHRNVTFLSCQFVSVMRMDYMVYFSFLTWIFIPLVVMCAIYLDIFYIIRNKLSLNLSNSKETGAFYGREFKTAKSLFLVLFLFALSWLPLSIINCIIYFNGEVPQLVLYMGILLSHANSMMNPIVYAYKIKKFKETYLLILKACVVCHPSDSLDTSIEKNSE
- test_description: Radioligand binding in membranes of CHO cells expressing hA3AR
- setup_conditions: (h); Ki; read-out: A3AR % inhibition or Ki
pKi: −log10 of the molar value.
Decision: pKi compared against 7; not below it gives condition met, below it gives condition not met.

Worked examples follow.
Input: Could you verify whether the entry OC[C@H]1O[C@@H](n2cnc3c(NC(C4CCC4)C4CCC4)nc(Cl)nc32)[C@H](O)[C@@H]1O shows pKi of no less than 7?
Output: condition not met

Input: Could you verify whether the entry OC[C@H]1O[C@@H](n2cnc3c(NC(C4CCC4)C4CCC4)ncnc32)[C@H](O)C1O (stereo in doubt) shows pKi of no less than 7?
Output: condition not met

Continuing:
Input: Could you verify whether the entry Nc1ncnc2c1ncn2[C@@H]1O[C@H](C(=O)NC2CC2)[C@@H](O)[C@H]1O [Compound 17, reference compound] shows pKi of no less than 7?
Output: condition not met

Input: Could you verify whether the entry Nc1nc(Cl)nc2c1ncn2[C@H]1[C@H](O)[C@H](O)[C@]2(CCl)C[C@H]12 shows pKi of no less than 7?
Output: condition not met

Input: Could you verify whether the entry CNC(=O)[C@@]12C[C@@H]1[C@@H](n1cnc3c(NC(C4CC4)C4CC4)nc(Cl)nc31)[C@H](O)[C@@H]2O shows pKi of no less than 7?
Output: condition met

====

- tested_target: adrenergic receptor β3 (Homo sapiens, UniProt P13945)
- Sequence (P13945 whole entry): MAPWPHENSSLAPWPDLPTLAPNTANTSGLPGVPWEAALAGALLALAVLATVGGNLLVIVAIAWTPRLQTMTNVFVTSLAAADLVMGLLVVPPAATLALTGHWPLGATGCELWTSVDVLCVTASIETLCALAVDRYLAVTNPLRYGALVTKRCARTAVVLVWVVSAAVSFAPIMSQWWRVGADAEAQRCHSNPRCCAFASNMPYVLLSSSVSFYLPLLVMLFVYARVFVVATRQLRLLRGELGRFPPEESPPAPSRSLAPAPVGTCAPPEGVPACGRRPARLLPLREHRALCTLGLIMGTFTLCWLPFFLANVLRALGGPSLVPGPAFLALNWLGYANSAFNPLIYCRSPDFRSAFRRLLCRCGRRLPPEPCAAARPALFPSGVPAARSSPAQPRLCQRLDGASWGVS
- test_description: Off-target interaction determined by the PDSP
- Assay type: binding
- setup_conditions: read-out: Off-target, receptor (h, unless noted) (Ki, μM): β3
measured_metric: Ki (µM)
The answer is to be given in µM; state only the numeric part.

The recorded Ki with adrenergic receptor β3 (Homo sapiens, UniProt P13945) for COC(=O)c1ncn([C@H]2[C@H](O)[C@H](O)[C@]3(CO)C[C@H]23)n1 was 1.42

====

- tested_target: mA3AR (Mus musculus)
- Sequence (Q61618 whole entry): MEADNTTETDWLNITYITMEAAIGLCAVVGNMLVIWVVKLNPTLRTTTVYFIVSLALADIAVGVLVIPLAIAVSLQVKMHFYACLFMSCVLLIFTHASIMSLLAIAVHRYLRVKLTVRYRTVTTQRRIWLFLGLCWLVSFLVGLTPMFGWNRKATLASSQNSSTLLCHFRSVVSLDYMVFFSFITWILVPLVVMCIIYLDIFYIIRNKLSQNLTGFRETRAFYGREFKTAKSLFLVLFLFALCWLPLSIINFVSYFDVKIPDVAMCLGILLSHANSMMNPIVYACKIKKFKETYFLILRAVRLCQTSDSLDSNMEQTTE
- test_description: Guanine nucleotide ([35S]GTPγS) binding assay
- Format: biochemical
- setup_conditions: effect of 10 μM test compound as % of 10 μM 16
measured_metric: Emax at 10 µM (%)
The answer is to be given in %; state only the numeric part.

// solved cases for Emax at 10 µM follow
Note to self: Emax at 10 µM recorded for OC[C@H]1O[C@@H](n2cnc3c(NC(C4CCC4)C4CCC4)nc(Cl)nc32)[C@H](O)C1O (stereo in doubt) was 63

Note to self: Emax at 10 µM recorded for OC[C@@]12C[C@@H]1[C@@H](n1cnc3c(NC(C4CCC4)C4CCC4)ncnc31)[C@H](O)[C@@H]2O was 92

Note to self: Emax at 10 µM recorded for OC[C@H]1O[C@@H](n2cnc3c(NC(C4CCC4)C4CCC4)ncnc32)[C@H](O)C1O (stereo in doubt) was 70

Note to self: Emax at 10 µM recorded for O[C@H]1[C@H](n2cnc3c(N[C@H]4C[C@H]5CC[C@@H]4C5)nc(Cl)nc32)[C@H]2C[C@@]2(CCl)[C@H]1O was 50

Now consider a different compound.
Note to self: Emax at 10 µM recorded for NC(=O)c1ncn([C@H]2[C@H](O)[C@H](O)[C@]3(CO)C[C@H]23)n1 was 31
